Molecular target: hGIP-R (Homo sapiens, UniProt P48546)
Construct: expressed in transfected cells; host or cells: HEK-293 clonal cell lines
Sequence (P48546 22-466): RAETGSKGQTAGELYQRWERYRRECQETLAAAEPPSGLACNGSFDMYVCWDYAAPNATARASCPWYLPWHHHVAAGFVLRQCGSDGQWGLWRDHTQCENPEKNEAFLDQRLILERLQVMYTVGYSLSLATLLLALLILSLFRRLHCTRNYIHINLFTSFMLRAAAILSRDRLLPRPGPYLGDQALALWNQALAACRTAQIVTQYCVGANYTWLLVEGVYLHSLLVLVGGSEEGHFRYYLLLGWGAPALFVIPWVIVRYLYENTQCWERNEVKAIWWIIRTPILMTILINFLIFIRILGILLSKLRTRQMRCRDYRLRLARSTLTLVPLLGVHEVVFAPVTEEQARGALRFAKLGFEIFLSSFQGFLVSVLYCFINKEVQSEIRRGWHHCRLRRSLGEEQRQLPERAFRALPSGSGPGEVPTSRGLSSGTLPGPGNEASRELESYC
Assay: Functional hGIP-R Assay (cAMP formation, HTRF)
Format: cell-based
Conditions: cAMP potency; HEK-293 cells expressing hGIP-R; incubated at 37° C. in the presence of 0.1% bovine casein; geometric mean; read-out: Human GIP-R EC50, nM (SEM, n)
Please use the following EC50 ranges when assigning a class: Low = under 4 nM, Medium = from 4 nM up to 40 nM, High = 40 nM and over

Cc1nc(-c2cnc3nn(C4CC4)cc3c2)ccc1[C@H]1C[C@@]12CCN([C@H](Cc1cnn(C(F)F)c1)C(=O)NC(C)(C)Cn1nc(C(F)(F)F)cc1-c1ccn(C3CC3)c(=O)c1)C2=O : Low

Query: Bin? Cn1cc2cc(-c3ccc([C@H]4C[C@@]45CCN([C@H](Cc4cnn(C(F)F)c4)C(=O)NC(C)(C)Cn4nc(C(F)(F)F)cc4-c4cc(F)c6nccn6c4)C5=O)cc3)cnc2n1
Result: Medium

Query: Bin? Cn1cc(C[C@@H](NC(=O)[C@H]2C[C@@H]2c2ccc(-c3cnc4nccn4c3)cc2)C(=O)NC(C)(C)Cn2nc(C(F)(F)F)cc2-c2cnn(C)c2)cn1
Result: Medium

Query: Bin? Cn1cc(C[C@@H](NC(=O)C2CC2c2ccc(-c3cnc4nccn4c3)cc2C(F)(F)F)C(=O)NC(C)(C)Cc2ccc(F)cc2)cn1 (single isomer, unassigned; isomer 2)
Result: High

----------
biological target: hGIP-R (Homo sapiens); construct: expressed in transfected cells; host or cells: HEK-293 clonal cell lines; assay: Functional hGIP-R Assay (cAMP formation, HTRF); format: cell-based; details: cAMP efficacy; percent of maximal response to GIP(1-42)OH; 37° C., 0.1% bovine casein; arithmetic mean ± SEM
test-readout: Emax
Don't forget the unit after the number, please.

Here is how some molecules turned out for Emax.
Cn1cc2cc(-c3ccc([C@H]4C[C@@]45CCN([C@H](Cc4cnn(C(F)F)c4)C(=S)NC(C)(C)Cn4nc(C(F)(F)F)cc4-c4cc(F)c(=O)n(C)c4)C5=O)c(F)c3)cnc2n1 (single isomer, unassigned; isomer 1) : 59.3%
COCc1cn2cc(-c3ccc([C@H]4C[C@@H]4C(=O)N[C@H](Cc4cnc5ncccn45)C(=O)NC(C)(C)Cn4cc(C(F)(F)F)cn4)cc3)cnc2n1 : 119%
[2H]C([2H])([2H])n1cc(C[C@H](C(=O)NC(C)(C)Cn2nc(C(F)(F)F)cc2-c2cnc(C)nc2)N2CCC3(CC3c3ccc(-c4cnc5nn(C)cc5c4)nc3C(F)(F)F)C2=O)cn1 (single isomer, unassigned; isomer 1) : 87.3%

Here is the next item to consider.
Query: Need Emax of [2H]C([2H])([2H])N(C(=O)C1CC1(C)c1ccc(-c2cnc3nn(C)cc3c2)cc1F)[C@H](Cc1cnn(C(F)F)c1)C(=O)NC(C)(C)Cn1nc(C(F)(F)F)cc1-c1cc(F)c(=O)n(C)c1 (single isomer, unassigned; isomer 1) , thanks.
Result: 84.8%
